- procedureSummary: Aqueous solubility at 24±3° C.
- setupConditions: water
readoutType: solubility

molecule	observed
COC(=O)N[C@H](C(=O)N[C@@H](Cc1ccccc1)[C@@H](O)CN(Cc1ccc(-c2ccccn2)cc1)NC(=O)[C@@H](NC(=O)OC)C(C)(C)C)C(C)(C)C [benzenesulfonate]	1000 to 3000 µg/mL
